Field: melting point. Provide a value for each of the compounds that follow.

Parameter requested: melting point. Apply to each item below.
1. CCOCc1nc2c(N)nc3cccnc3c2n1CC(C)(C)NC(=O)C(C)C
2. O=C(N[C@H]1CC[C@H](CCN2CCN(c3nccc4c3OCC4)CC2)CC1)C1(O)CCC1
3. COc1cc(N2CCOCC2)ccc1Nc1nc(Nc2ccc3c(c2)CCCC(=O)N3C(C)C)ncc1Cl
4. CCS(=O)(=O)c1ccc(-c2coc3ccc(-c4nnc(C)o4)cc23)c(Cl)c1
5. CCOC(=O)c1sc(Oc2ccccc2)c2c1CCCC2=O
6. CCOC(=O)c1c(C)cc2cnc(Cc3ccccc3)nc2c1C
7. Cc1cc2c(s1)Nc1ccccc1N=C2N1CCN(C)[C@@H](CCc2ccccc2)C1
8. CCOc1ccc(-c2nn(C(C)c3oc4ccccc4c(=O)c3-c3cccc(F)c3)c3ncnc(N)c23)cc1 (stereo not given)

Response:
1. 154 to 156 °C
2. 250 °C
3. 153 to 154 °C
4. 180 to 181 °C
5. 125 to 127 °C
6. 77 to 79 °C
7. 87 to 91 °C
8. 229 to 232 °C

Parameter requested: melting point. Apply to each item below.
1. O=C1NCCCN1c1ccccc1
2. Fc1ccc(Nc2ncnc3[nH]ccc23)cc1Cl
3. O=C(CC(c1ccccc1)c1ccccc1)NCO
4. C[C@H]1[C@H](N(C)C)CN1c1cc2c(cc1F)c(=O)c(C(=O)O)cn2C1CC1 (relative stereo)

Response:
210 to 211 °C
274 to 275 °C
149 to 151 °C
181 to 185 °C

Parameter requested: melting point. Apply to each item below.
1. Fc1ccc(-c2ncncc2CCN2CCC(c3csc4cc(F)ccc34)CC2)cc1
2. CC(C)(C)OC(=O)N1CCN(c2nc(N)c3nc(-c4ccccc4)c(N)nc3n2)CC1

Response:
1. 123 to 124 °C
2. 240 to 242 °C

Parameter requested: melting point. Apply to each item below.
1. CC(Oc1cc2sc(NC(=O)NCCN3CCOCC3)nc2cc1Cl)c1c(Cl)ccc(F)c1Cl (stereo not given)
2. Cc1c(Cc2ccc(C(C)C)cc2)c2c(c(C)c1NC(=O)CC(C)(C)C)CC(C)(C)O2
3. COc1cc(NC(=O)NC2CC(O)CC2N2CCC(Cc3ccc(Cl)cc3)CC2)cc(OC)c1OC (stereo not given)
4. CC(C)OC(=O)c1cc(N=C=O)c(F)cc1Cl
5. COC(=S)Nc1ccc(OCc2nc3ccccc3s2)cc1

Response:
196 to 198 °C
170 to 171 °C
81 to 84 °C
41 to 43 °C
160 to 162 °C

Prompt: Item OC1CCCc2nc3ccccc3c(NCCCOc3ccccc3)c21 (stereo not given) has what recorded melting point?
Response: 138 to 140 °C
